All figures here come from ChEMBL document CHEMBL5212743.

Biological target: Leukocyte tyrosine kinase receptor (Homo sapiens)
Test: Selectivity interaction (ScanMAX (DiscoverX, competition-binding assay)) EUB0000285b LTK
Assay metric: Kd

>>> reported("O=C(NCc1ccccc1)c1ccc(S(=O)(=O)NCc2ccccc2)cc1")
"> 10 µM"

====

Target: Matrix metalloproteinase-14 (Homo sapiens)
Assay: Selectivity interaction (Lead profiling screen (Eurofins, enzymes, transporters, GPCRs, ion chanels)) EUB0000728a MMP14
pIC50: −log10 of the molar value.
Assay metric: pIC50

>>> reported("O=C(O)[C@H]1[C@H](Cn2nnc3ccccc3c2=O)CC[C@@H]1C(=O)c1ccc(OCCC2CCOCC2)cc1")
6.60

====

Molecular target: Gamma-aminobutyric acid receptor subunit alpha-1 (Homo sapiens, UniProt P14867)
Assay: Selectivity interaction (CEREP panel (GPCRS, ion channels, transporters)) EUB0000193b GABRA1
Assay metric: Ki

>>> reported("Clc1cc2c(NC3CCCC3)nnc(-c3ccncc3)c2cc1Cl")
"1.8 µM"

====

Biological target: Serine/threonine-protein kinase PLK1 (Homo sapiens)
Sequence (P53350 whole entry): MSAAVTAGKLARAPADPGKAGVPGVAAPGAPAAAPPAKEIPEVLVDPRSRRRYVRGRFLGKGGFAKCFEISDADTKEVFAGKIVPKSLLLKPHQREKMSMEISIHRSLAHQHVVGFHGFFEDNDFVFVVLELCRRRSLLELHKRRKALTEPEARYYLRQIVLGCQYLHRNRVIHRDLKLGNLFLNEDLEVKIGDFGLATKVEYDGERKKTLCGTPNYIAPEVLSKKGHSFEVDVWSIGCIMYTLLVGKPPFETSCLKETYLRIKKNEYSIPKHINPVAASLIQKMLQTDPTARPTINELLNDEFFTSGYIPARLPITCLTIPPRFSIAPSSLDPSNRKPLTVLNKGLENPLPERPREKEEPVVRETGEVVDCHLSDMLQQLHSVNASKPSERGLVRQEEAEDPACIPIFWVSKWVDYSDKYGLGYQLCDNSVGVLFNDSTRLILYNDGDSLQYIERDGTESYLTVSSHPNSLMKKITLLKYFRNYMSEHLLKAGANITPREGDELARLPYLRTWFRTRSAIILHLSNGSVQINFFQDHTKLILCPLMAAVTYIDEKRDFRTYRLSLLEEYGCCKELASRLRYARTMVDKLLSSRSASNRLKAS
Experiment: Selectivity interaction (Enzymatic assay) EUB0000608a PLK1
Assay metric: IC50 (nM)

>>> reported("CCOc1cc(N2CCC(O)CC2)ccc1Nc1ncc2c(n1)N(C1CCCC1)CCC(=O)N2C")
61

====

Target: Gamma-aminobutyric acid receptor subunit alpha-1 (Homo sapiens, UniProt P14867)
Test: Selectivity interaction (GPCR panel (PDSP screen)) EUB0000326a GABRA1
Assay metric: Ki (nM)

>>> reported("CNC(=O)Nc1ccc2c(c1)[C@@]1(CC2)OC(=O)N(CC(=O)N(Cc2ccc(F)cc2)[C@@H](C)C(F)(F)F)C1=O")
2580

====

Molecular target: Histone-lysine N-methyltransferase EZH2 (Homo sapiens, UniProt Q15910)
Test: Selectivity interaction (Methyltransferase panel (Scintillation proximity assay (SPA))) EUB0000212b EZH2
Assay metric: EC50

>>> reported("COc1cc2c(cc1OCCCN1CCCC1)N=C(N)C21CCC1")
"> 50 µM"

====

Target: D(1B) dopamine receptor (Homo sapiens)
Sequence (P21918 whole entry): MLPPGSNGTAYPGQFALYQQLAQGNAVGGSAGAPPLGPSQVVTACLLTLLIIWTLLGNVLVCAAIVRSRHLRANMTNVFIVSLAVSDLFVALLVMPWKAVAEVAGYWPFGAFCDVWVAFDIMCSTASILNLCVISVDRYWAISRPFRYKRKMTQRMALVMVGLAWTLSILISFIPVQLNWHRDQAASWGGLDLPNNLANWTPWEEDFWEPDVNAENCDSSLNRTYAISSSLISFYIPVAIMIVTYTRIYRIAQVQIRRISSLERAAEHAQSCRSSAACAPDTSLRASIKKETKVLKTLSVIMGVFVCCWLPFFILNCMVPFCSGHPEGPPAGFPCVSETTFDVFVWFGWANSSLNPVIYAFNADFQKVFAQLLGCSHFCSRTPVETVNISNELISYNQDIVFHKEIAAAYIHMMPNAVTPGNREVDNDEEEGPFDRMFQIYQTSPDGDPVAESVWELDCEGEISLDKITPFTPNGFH
Assay: Selectivity interaction (GPCR panel (PDSP screen)) EUB0000730a DRD5
Assay metric: Ki

>>> reported("CCOC(=O)c1cc2cc(-c3cc(C(=O)NCc4ccc(C(=O)O)cc4)nn3C)ccc2[nH]1 [BI 4394]")
"> 10 µM"

====

Biological target: Sodium/nucleoside cotransporter 2 (Homo sapiens, UniProt O43868)
Experiment: Selectivity interaction (Enzyme panel (Eurofins-Panlabs radioligand binding assays)) EUB0000751a SLC28A2
pIC50: −log10 of the molar value.
Assay metric: pIC50

>>> reported("COCCOc1nc(-c2ccc(Cl)nc2)nc2c1CN(C(=O)c1ncn3ccccc13)CC2")
5.79

====

Target: Tyrosine-protein kinase Fes/Fps (Homo sapiens, UniProt P07332)
Sequence (P07332 whole entry): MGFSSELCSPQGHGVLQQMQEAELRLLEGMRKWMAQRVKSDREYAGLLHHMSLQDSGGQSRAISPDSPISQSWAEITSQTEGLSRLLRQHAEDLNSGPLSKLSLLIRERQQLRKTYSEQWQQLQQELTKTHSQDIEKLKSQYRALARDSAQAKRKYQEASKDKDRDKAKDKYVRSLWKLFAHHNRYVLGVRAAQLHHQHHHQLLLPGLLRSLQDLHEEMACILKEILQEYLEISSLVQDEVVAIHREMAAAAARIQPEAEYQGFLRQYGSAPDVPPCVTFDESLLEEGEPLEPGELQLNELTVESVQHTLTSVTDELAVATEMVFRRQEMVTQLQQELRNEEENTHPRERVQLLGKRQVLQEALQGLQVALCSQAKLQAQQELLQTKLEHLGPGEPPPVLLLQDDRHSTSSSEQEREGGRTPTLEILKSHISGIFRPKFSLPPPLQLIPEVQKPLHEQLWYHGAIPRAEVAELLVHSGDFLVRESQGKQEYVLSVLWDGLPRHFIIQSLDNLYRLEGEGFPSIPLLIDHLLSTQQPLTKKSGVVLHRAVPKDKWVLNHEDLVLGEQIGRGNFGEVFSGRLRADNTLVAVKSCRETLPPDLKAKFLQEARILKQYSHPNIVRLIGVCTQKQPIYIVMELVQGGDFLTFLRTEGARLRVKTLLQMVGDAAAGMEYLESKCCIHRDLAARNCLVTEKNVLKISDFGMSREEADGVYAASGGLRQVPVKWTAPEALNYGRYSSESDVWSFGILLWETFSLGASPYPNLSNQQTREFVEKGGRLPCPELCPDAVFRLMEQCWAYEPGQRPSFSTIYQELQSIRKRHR
Experiment: Selectivity interaction (Z’-LYTE assay (SelectScreen Invitrogen)) EUB0000690a FES
pKi: −log10 of the molar value.
Assay metric: pKi

>>> reported("C[C@H]1Oc2cc(cnc2N)-c2c(nn(C)c2C#N)CN(C)C(=O)c2ccc(F)cc21")
8.22

====

Molecular target: Histone-lysine N-methyltransferase NSD2 (Homo sapiens)
Sequence (O96028 whole entry): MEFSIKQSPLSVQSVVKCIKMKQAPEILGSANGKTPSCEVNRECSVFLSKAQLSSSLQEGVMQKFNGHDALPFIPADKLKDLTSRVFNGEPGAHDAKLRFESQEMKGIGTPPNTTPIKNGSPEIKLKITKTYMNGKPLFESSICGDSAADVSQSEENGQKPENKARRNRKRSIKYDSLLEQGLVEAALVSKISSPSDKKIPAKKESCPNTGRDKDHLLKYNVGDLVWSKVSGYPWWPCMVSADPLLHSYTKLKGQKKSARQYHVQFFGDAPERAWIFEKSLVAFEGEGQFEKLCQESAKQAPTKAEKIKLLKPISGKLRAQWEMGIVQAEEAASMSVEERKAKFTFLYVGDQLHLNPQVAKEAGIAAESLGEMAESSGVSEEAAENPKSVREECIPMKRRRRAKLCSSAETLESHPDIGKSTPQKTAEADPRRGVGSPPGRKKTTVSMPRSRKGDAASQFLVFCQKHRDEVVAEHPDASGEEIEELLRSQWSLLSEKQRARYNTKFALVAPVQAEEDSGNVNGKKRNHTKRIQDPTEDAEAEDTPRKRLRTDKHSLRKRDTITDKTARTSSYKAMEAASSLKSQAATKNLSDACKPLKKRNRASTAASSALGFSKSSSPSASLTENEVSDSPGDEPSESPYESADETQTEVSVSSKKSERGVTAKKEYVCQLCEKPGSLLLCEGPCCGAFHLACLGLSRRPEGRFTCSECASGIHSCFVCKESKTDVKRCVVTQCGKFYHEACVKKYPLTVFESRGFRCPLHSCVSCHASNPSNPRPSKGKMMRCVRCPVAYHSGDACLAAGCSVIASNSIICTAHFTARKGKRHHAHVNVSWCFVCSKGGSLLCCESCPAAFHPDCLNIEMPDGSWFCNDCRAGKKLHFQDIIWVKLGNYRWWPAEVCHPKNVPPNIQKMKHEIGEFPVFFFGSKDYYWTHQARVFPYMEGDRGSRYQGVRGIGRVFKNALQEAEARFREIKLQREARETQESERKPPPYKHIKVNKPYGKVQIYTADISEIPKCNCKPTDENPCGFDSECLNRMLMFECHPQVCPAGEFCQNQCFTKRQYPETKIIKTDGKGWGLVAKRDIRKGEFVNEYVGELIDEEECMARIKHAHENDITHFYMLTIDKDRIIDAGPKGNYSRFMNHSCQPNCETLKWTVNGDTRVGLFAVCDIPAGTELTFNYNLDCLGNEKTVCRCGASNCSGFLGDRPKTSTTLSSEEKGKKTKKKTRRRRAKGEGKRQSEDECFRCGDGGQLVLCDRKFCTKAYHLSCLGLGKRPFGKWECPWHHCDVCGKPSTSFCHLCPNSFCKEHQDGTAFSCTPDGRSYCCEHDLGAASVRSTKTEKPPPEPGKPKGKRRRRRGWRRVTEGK
Assay: Selectivity interaction (Methyltransferase panel (Scintillation proximity assay (SPA))) EUB0000212b NSD2
Assay metric: EC50

>>> reported("COc1cc2c(cc1OCCCN1CCCC1)N=C(N)C21CCC1")
"> 50 µM"

====

Target: Inhibitor of nuclear factor kappa-B kinase subunit alpha (Homo sapiens, UniProt O15111)
Sequence (O15111 whole entry): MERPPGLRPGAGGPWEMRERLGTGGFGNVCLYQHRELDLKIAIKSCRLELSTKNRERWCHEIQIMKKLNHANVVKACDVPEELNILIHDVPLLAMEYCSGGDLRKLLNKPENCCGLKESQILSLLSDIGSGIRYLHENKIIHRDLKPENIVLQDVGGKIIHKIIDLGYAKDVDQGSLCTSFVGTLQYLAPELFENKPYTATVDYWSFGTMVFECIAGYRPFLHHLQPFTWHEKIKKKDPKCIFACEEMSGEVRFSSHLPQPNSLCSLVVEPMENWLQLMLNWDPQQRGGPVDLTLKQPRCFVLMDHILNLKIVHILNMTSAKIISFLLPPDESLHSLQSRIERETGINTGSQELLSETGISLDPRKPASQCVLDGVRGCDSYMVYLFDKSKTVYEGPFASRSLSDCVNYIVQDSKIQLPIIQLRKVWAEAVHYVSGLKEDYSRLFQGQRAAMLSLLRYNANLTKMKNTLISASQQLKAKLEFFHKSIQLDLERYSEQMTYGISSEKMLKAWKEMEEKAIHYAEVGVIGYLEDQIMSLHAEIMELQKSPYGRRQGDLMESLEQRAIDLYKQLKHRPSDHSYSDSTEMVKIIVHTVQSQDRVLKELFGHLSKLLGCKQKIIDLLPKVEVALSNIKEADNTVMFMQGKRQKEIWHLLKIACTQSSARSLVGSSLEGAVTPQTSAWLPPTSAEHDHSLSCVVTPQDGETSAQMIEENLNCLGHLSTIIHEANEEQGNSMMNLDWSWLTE
Assay: Selectivity interaction (Kinase panel (enzymatic assay)) EUB0000153b CHUK
Assay metric: IC50

>>> reported("CNc1nc(-c2ccc3c(N)n[nH]c3c2)cc(N2C[C@@H](C(=O)NC3CCCCC3)CC[C@H]2C)n1")
"> 10 µM"

====

Biological target: Gamma-aminobutyric acid receptor subunit alpha-1 (Homo sapiens, UniProt P14867)
Experiment: Selectivity interaction (GPCR panel (PDSP screen)) EUB0000703a GABRA1
pKi: −log10 of the molar value.
Assay metric: pKi

>>> reported("Cc1cc(NC(=O)c2cccc(S(F)(F)(F)(F)F)c2)cc(-n2ccn3nc(-c4cccnc4)cc23)c1")
4.96

====

Target: Protein arginine N-methyltransferase 8 (Homo sapiens, UniProt Q9NR22)
Sequence (Q9NR22 whole entry): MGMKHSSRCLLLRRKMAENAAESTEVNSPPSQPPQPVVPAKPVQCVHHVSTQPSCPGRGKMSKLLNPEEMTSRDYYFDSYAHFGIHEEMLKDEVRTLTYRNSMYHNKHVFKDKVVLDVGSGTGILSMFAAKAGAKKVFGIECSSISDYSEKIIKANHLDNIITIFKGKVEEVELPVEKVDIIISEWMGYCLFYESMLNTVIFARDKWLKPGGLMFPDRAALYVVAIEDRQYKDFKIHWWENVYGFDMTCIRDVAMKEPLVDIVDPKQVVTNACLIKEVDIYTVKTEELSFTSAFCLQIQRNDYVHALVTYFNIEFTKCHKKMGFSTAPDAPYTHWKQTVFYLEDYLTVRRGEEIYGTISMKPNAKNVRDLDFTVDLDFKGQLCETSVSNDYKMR
Test: Selectivity interaction (Methyltransferase panel (Scintillation proximity assay (SPA))) EUB0000212b PRMT8
Assay metric: EC50

>>> reported("COc1cc2c(cc1OCCCN1CCCC1)N=C(N)C21CCC1")
"> 50 µM"

====

Biological target: Insulin-like growth factor 1 receptor (Homo sapiens)
Sequence (P08069 31-736 limits assumed): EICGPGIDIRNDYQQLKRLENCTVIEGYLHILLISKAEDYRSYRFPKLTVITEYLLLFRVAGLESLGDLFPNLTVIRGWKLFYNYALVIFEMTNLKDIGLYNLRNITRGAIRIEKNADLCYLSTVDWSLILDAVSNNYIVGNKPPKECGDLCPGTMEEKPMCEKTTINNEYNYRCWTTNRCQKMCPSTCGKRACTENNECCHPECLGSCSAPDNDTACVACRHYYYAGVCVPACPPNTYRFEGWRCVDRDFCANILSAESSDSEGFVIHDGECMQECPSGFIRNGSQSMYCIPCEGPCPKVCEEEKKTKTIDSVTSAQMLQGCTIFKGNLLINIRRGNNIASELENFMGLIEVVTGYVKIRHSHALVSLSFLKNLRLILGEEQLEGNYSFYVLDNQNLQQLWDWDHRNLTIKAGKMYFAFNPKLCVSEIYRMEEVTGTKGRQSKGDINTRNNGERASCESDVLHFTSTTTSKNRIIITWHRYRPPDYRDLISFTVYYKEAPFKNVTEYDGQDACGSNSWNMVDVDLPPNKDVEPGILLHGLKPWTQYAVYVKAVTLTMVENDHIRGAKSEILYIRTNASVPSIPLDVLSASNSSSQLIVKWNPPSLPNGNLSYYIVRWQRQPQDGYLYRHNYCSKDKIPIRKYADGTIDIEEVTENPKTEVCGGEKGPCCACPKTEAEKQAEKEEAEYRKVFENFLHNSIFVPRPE
Sequence (P08069 741-1367 limits assumed): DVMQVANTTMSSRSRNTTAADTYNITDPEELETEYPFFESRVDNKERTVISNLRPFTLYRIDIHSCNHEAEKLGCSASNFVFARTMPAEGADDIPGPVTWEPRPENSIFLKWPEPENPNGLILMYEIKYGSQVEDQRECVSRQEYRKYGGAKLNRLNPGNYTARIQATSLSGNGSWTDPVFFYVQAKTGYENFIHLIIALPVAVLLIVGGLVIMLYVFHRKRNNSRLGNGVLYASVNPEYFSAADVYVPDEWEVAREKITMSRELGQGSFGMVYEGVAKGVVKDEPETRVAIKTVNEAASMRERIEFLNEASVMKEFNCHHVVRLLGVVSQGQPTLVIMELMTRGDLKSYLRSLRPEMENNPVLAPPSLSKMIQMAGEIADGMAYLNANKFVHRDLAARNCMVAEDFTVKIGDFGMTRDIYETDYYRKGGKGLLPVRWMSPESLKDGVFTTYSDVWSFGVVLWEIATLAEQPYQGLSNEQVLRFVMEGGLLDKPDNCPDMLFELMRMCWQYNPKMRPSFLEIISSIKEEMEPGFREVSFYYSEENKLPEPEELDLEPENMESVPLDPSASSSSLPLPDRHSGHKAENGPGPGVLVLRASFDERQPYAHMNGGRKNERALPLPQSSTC
Assay: Selectivity interaction (Enzymatic assay) EUB0000624a IGF1R
Assay metric: IC50

>>> reported("CCOc1ccn(-c2ccc(F)cc2)c(=O)c1C(=O)Nc1ccc(Oc2ccnc(N)c2Cl)c(F)c1")
"> 2000 nM"

====

Biological target: Bromodomain adjacent to zinc finger domain protein 2B (Homo sapiens, UniProt Q9UIF8)
Test: Selectivity interaction (BROMOscan™ panel (DiscoverX)) EUB0000256b BAZ2B
Assay metric: Ki (nM)

>>> reported("CN1C[C@H](Nc2cnn(C)c(=O)c2Br)C[C@H](c2ccccc2)C1")
840

====

Target: Gamma-aminobutyric acid receptor subunit alpha-1 (Homo sapiens, UniProt P14867)
Sequence (P14867 whole entry): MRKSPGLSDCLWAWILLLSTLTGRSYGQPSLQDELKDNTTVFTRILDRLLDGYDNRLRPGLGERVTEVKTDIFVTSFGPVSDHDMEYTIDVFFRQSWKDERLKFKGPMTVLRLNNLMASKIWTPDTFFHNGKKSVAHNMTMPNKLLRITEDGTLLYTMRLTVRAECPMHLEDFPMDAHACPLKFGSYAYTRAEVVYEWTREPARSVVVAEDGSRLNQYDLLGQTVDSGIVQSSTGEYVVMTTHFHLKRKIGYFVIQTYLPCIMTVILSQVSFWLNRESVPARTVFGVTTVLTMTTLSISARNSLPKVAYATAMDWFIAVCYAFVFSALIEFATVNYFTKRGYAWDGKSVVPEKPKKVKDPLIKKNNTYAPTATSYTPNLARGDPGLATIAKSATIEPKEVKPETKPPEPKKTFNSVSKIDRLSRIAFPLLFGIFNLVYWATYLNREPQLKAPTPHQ
Test: Selectivity interaction (GPCR panel (PDSP screen)) EUB0000702a GABRA1
pKi: −log10 of the molar value.
Assay metric: pKi

>>> reported("CN(c1ccnc(CNc2nc(Nc3ccc4c(c3)CC(=O)N4)ncc2C(F)(F)F)n1)S(C)(=O)=O [PF-00911705]")
5.83
